Overview of recorded pIC50 for various molecules
# Target Of Assay: p45 v-abl tyrosine kinase
# Experiment Summary: Exogenous Substrate Kinase Assay: p45 v-abl kinase inhibition
# Condition Notes: (Val^5)-Angiotensin II phosphorylation; 40 ng abl-kinase; peptide 2 mM, ATP 50 μM; pH 8.0, 30° C.; triplicate determinations
// returns pIC50 (minus log10 of molar concentration), number only

Completed entries (count: 2):
> print(dat)
                                   molecule  endpoint  observed.result
1  O=C1NC(=O)c2ccccc2C1=Cc1ccnc2ccccc12 [4-(4'-quinolyl)methylenehomophthalimide]     pIC50             4.82
2     O=S1(=O)Nc2ccccc2C1=Cc1c[nH]c2ccccc12     pIC50             3.95

Ask: Suppose we examine the molecule O=C1NC(=O)c2ccccc2C1=Cc1ccc(O)cc1 ; what pIC50 value has been reported?
Reply: 5.30

Ask: Suppose we examine the molecule O=S1(=O)Nc2ccccc2C1=Cc1ccc(O)cc1 ; what pIC50 value has been reported?
Reply: 4.77
